Entries and their pKd
Molecular target: T1, EsCas13d, nuclease-dead (Eubacterium siraeum, UniProt B0MS50, R295A;H300A;R849A;H854A)
T1 sequence: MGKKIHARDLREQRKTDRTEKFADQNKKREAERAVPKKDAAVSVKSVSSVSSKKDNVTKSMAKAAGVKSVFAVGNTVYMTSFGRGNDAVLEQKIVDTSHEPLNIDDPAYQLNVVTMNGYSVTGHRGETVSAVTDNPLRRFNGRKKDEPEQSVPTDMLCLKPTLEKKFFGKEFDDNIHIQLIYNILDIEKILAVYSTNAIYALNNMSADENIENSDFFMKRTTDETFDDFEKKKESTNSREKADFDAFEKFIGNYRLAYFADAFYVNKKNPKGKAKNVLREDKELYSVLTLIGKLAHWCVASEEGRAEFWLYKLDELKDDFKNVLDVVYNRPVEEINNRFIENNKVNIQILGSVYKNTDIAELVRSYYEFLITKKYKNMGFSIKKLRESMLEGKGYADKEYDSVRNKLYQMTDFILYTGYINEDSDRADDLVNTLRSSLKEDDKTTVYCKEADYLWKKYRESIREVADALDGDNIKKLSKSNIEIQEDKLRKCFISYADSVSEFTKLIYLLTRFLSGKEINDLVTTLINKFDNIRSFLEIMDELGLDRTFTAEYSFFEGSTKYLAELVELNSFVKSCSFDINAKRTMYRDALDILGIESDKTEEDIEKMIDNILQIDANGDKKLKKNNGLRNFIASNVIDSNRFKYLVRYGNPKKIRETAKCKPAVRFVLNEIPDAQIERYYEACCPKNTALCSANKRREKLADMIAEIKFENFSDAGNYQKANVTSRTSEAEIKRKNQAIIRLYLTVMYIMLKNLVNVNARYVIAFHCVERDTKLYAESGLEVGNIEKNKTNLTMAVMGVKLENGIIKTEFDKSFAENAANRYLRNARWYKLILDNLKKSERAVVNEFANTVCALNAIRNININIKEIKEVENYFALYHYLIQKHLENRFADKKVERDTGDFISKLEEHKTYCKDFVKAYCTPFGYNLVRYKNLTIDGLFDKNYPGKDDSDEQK
Experiment: crRNA (strand 1, pre-loaded); Mg2+; 40 mM Tris-HCl pH 7.5, 150 mM NaCl, 6 mM MgCl2, 1 mM DTT, 0.1% Tween-20, 0.2 mg/ml BSA; 25 C; 10 min per concentration, then washed
Settings: tags: His6-TwinStrep-SUMO cleaved; N-terminal SNAP kept (SNAP-Surface 488); label: 3' end held by stalled T7 RNA polymerase
Give only the number. pKd is defined as minus log10 of concentration in molar units.

{"Binder": "target 2 MT 5'PFS AAC 3'PFS AUA (mixed) RNA 1: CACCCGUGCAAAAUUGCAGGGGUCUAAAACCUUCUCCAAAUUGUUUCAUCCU RNA 2: GGGAAUGGAUCCACAUCUACGAAUUCAACAGGAUGAAACAAUUUGGAGAAGAUAAGAUCGGAAGAGCACACGU", "pKd": 8.21}

Next item in the queue.
# input binder: target 1 U11A,G17U (mixed) RNA 1: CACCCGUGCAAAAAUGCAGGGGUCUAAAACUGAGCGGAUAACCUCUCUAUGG RNA 2: GGGAAUGGAUCCACAUCUACGAAUUCGUACCAUAUAGAGGAUAUCCGCUCACCGAGAUCGGAAGAGCACACGU ; wanted: its pKd
7.08

Source: paper PMC10786891
